B1: tRNA (parent)
chain: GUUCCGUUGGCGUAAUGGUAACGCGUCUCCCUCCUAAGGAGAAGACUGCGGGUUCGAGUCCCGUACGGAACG

# Variants of: B1
# assay overview: yeast fitness relative to wild type (ratio to wild type); higher = fitter; tRNA-Arg(CCU), competitive growth, 37 C, YPD
This sample holds only a part of the variants without activity.
measurement name: yeast fitness
Just the number.

Known results for variants:
mutation annotation	yeast fitness
U53A U59A	0.664
C4U A15U C30A A40G C66U	0.6
U8C U47A	0.937
U32C A42U G48C	0.567
A15U G25A C55G	0.555

Enquiry: Any idea what yeast fitness was measured for A36G C46G ?
Return: 1.08

Enquiry: Moving on to G12C G44C C66U
Return: 0.573

Enquiry: Another variant to check: G41A C66U
Return: 0.685

Enquiry: Also C27U C31U C55U , if possible.
Return: 0.643

Enquiry: Also check C4G G17A C22A G38A
Return: 0.638

Enquiry: Likewise for U35G C46U C62U ?
Return: 0.579

Enquiry: // same read-out, input: C5G U47C G51A A65C
Return: 0.548

Enquiry: U32C G52A , same question.
Return: 0.76

Entry source: the RNAGym collection of RNA variant scans (doi:10.1126/science.aae0568)
